These data points were gathered from patent US20250186437A1.

Measured pIC50 values are reported for all entries that follow.
# Tested on: MOLM-13 cells
# TEST: MOLM-13 Cell Proliferation Assay (indicator of DHODH inhibition)
# Type: cell-based
# APPLIED_CONDITIONS: Homo sapiens, 72 Hours of culture, CellTiter-Glo, no uridine
# Protocol: The following assay was conducted to measure proliferation of MOLM-13 cells in the presence of each compound studied. […] On day 1, Log-phase growing Molm-13 Cells were counted and diluted to 10^5 cells/mL in RPMI 1640 medium+10% FBS • 3. […] The plates were then read by ViewLux (Speed-fast, Gain-High, Bining-1X, 5 seconds).
The read-out pIC50 is expressed as -log10 of concentration in moles per litre.

MOLECULE: N#Cc1nc(N2CCc3c([nH]c4ccc(Cl)cc34)[C@@H]2c2cnc(N3CCOCC3)nc2)ncc1F
pIC50: 8.62
--
MOLECULE: Cc1ccc([C@@H]2c3[nH]c4ccc(Cl)cc4c3CCN2c2nccc(C(F)(F)F)n2)c(F)c1F
pIC50: 7.95
--
MOLECULE: Cc1ccc(C2c3[nH]c4ccc(Cl)cc4c3CCN2c2nccc(C#N)n2)cc1 (stereo not shown)
pIC50: 8.15

Exercise: Specify the recorded pIC50 for Fc1cnc(N2CCc3c([nH]c4ccc(Cl)c(F)c34)C2c2ccc(C(F)(F)F)cc2)nc1 (stereo not shown) , system: MOLM-13 cells.
Key: 7.72
